Cited source for all entries: patent US20100112057A1

MEASURED_TARGET: the molecule itself
ASSAY_REMARKS: circular dichroism in PBS; concentration dependence of MRE at 222 nm fitted for the Kd of coiled-coil dimerization (unfolding/dissociation of the dimer)
OBSERVATION_TYPE: Kd (µM)
Enter your answer as a number in µM; do not include the unit.

Query: State its Kd: CGGRMKQLEDKVKKLLKKNYHLENEVARLKKLVG (Free peptide made by Fmoc solid phase synthesis on Rink Amide MBHA resin; The measurement is the self-association of two such chains into a coiled-coil dimer; also called PF4ZIP peptide) [PF4ZIP]
Response: 3.48
